Answer each item with its documented inhibition.
- SYSTEM_UNDER_TEST: Tyrosine-protein kinase Srms (Homo sapiens) (UniProt Q9H3Y6);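 also: reported value is a mean of the inhibition readings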
- Sequence (Q9H3Y6 whole entry): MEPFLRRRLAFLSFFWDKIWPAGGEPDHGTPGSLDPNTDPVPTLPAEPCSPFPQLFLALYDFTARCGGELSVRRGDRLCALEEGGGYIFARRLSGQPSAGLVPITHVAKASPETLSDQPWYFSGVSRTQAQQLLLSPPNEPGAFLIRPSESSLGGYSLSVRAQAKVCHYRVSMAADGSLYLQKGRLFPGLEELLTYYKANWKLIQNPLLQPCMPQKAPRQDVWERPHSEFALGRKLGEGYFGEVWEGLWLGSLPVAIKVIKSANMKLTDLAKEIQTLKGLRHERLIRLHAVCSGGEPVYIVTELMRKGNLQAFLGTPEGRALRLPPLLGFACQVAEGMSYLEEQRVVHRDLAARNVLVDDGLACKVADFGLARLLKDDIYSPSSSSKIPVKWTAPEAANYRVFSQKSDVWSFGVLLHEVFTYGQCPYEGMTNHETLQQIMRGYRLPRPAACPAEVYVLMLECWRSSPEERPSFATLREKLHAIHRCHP
- EXPERIMENTAL_PARAMETERS: at 0.1 µM
Give bare numbers, in %.

Below, 2 molecules whose answers are already recorded.
{"MOLECULE": "Fc1ccc(-c2ncn(C3CCNCC3)c2-c2ccnc(Oc3ccc(F)c(F)c3)n2)cc1", "inhibition / %": -3.17}
{"MOLECULE": "Cc1ccc(C(=O)NC(C)C)cc1-c1ccc(C(=O)NCC2CC2)cc1", "inhibition / %": -2.42}

Kindly give each listed record's inhibition.
1. COc1cccc(-n2cnc3c(N/N=C/c4ccncc4)ncnc32)c1
2. C/C(Nc1ccc(S(N)(=O)=O)cc1)=C1/C(=O)Nc2ccccc21
3. CN(C)CCOc1ccc(-c2cc(-c3ccc4c(c3)CCC4=NO)c(-c3ccncc3)o2)cc1
4. O=C(Nc1n[nH]c2nc(-c3ccc(O)cc3)c(Br)cc12)C1CC1

Response:
1: 2.47; 2: 1.16; 3: 3; 4: 2.23

* * *

- SYSTEM_UNDER_TEST: Dual specificity tyrosine-phosphorylation-regulated kinase 1A (Homo sapiens) (UniProt Q13627)
- EXPERIMENTAL_PARAMETERS: at 0.1 µM
- Description: GSK_PKIS: DYRK1A mean inhibition at 0.1 uM [Nanosyn]
MEASURED_PARAMETER: inhibition (%)
Give bare numbers, in %.

Example results:
{"RECORD_SMILES": "FC(F)(F)c1cccc(Nc2nccc(-c3cnn4nc(-c5ccccc5)ccc34)n2)c1", "UNIT_NAME": "%", "inhibition": 1.59}
{"RECORD_SMILES": "NS(=O)(=O)c1ccc(N/N=C2\\C(=O)Nc3ccc(-c4cnco4)cc32)cc1", "UNIT_NAME": "%", "inhibition": 29.3}
{"RECORD_SMILES": "O=C1Nc2ccccc2/C1=C/Nc1ccc(-n2cncn2)cc1", "UNIT_NAME": "%", "inhibition": 6.54}
{"RECORD_SMILES": "NCc1ccc(-n2c(-c3nonc3N)nc3cnccc32)cc1", "UNIT_NAME": "%", "inhibition": 8.53}
{"RECORD_SMILES": "O=C(Nc1n[nH]c2cc(-c3ccccc3)ccc12)C1CC1", "UNIT_NAME": "%", "inhibition": 5.04}

I need inhibition for every entry listed below, if you could help.
1. O=C1Nc2ccc(I)cc2C1=Cc1cc(Br)c(O)c(Br)c1
2. NC(=O)Cc1ccccc1Oc1nccc(-c2c(-c3ccc(F)cc3)ncn2C2CCNCC2)n1

Response:
1: 1.95; 2: 4.01

For the 5 compounds below, give their inhibition values.
1. NC(=O)c1ccc(Oc2nccc(-c3c(-c4ccc(F)cc4)ncn3C3CCNCC3)n2)cc1
2. COC(=O)Nc1nc2ccc(Sc3ccc(NC(=O)Nc4cc(C(F)(F)F)ccc4F)cc3)cc2[nH]1
3. c1ccc(Oc2ccc(Nc3ncc(-c4ccccc4)o3)cc2)cc1
4. CN1CCN(CCCNc2nc3ccc(Oc4ccc(NC(=O)Nc5cc(C(F)(F)F)ccc5F)cc4)cc3[nH]2)CC1
5. Fc1ccc(-c2c(-c3ccncc3)nc3n2CCS3)cc1

Response:
1. 3.41
2. 0.92
3. 2.14
4. -4.06
5. -1.74

* * *

- SYSTEM_UNDER_TEST: Mitogen-activated protein kinase kinase kinase kinase 2 (Homo sapiens);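 also: values given as mean percent inhibition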
- EXPERIMENTAL_PARAMETERS: at 0.1 µM
MEASURED_PARAMETER: inhibition (%)
One number for each entry, in %.

{"RECORD_SMILES": "Cc1ccc(C(=O)NC2CCC2)cc1-c1ccc(C(=O)NCC2CC2)cc1", "MEASURED_PARAMETER": "inhibition", "UNIT_NAME": "%", "MEASURED": 0.91}
{"RECORD_SMILES": "Cc1ccc(NC(=O)c2ccoc2)cc1-c1ccc(C(=O)NCC2CC2)cc1", "MEASURED_PARAMETER": "inhibition", "UNIT_NAME": "%", "MEASURED": -0.94}
{"RECORD_SMILES": "COc1cccc(/C=N/Nc2ncnc3c2cnn3-c2cccc(OC)c2)c1", "MEASURED_PARAMETER": "inhibition", "UNIT_NAME": "%", "MEASURED": -0.07}
{"RECORD_SMILES": "COC(=O)Nc1nc2ccc(Sc3ccc(NC(=O)Nc4cc(C(F)(F)F)ccc4F)cc3)cc2[nH]1", "MEASURED_PARAMETER": "inhibition", "UNIT_NAME": "%", "MEASURED": 7.11}
{"RECORD_SMILES": "COc1cc(Nc2ncc3c(C)nc(-c4cccc(Oc5ccccc5)c4)n3n2)cc(OC)c1OC", "MEASURED_PARAMETER": "inhibition", "UNIT_NAME": "%", "MEASURED": 1.28}
{"RECORD_SMILES": "NC(=O)c1cc(-c2ccc(F)cc2)cc(-c2ccncc2)c1N", "MEASURED_PARAMETER": "inhibition", "UNIT_NAME": "%", "MEASURED": 0.12}
{"RECORD_SMILES": "CCc1ccc(Oc2nccc(-c3c(-c4ccc(F)cc4)ncn3C3CCNCC3)n2)cc1", "MEASURED_PARAMETER": "inhibition", "UNIT_NAME": "%", "MEASURED": 1.71}
{"RECORD_SMILES": "CCc1nccc2c1nc(-c1nonc1N)n2CC", "MEASURED_PARAMETER": "inhibition", "UNIT_NAME": "%", "MEASURED": 2.12}
{"RECORD_SMILES": "O=C(Nc1n[nH]c2cc(-c3cc(F)ccc3F)ccc12)C1CC1", "MEASURED_PARAMETER": "inhibition", "UNIT_NAME": "%", "MEASURED": 0.39}
{"RECORD_SMILES": "CN1CCN(CCCNc2nc3ccc(Oc4ccc(NC(=O)Nc5cc(C(F)(F)F)ccc5F)cc4)cc3[nH]2)CC1", "MEASURED_PARAMETER": "inhibition", "UNIT_NAME": "%", "MEASURED": 3.12}

Quick one: give me inhibition for each item below, same order please.
1. Fc1ccc(-c2ncn(CCCN3CCOCC3)c2-c2ccncc2)cc1
2. Fc1ccc(-c2c(-c3ccncc3)nc3n2CCS3)cc1
3. O=C(NCC1CC1)c1ccc(-c2cccc(C(=O)NC3CC3)c2)cc1
4. COc1cc(C)c(N(C)C(=O)CN(C)C)cc1Nc1nc(Nc2cccc(F)c2C(N)=O)c2cc[nH]c2n1
5. O=C(Nc1n[nH]c2nc(-c3ccc(O)cc3)c(Br)cc12)C1CC1
6. C#Cc1cccc(Nc2ncnc3ccc(OCCCCNCCS(C)(=O)=O)cc23)c1
7. NC(=O)Cc1ccccc1Oc1nccc(-c2c(-c3ccc(F)cc3)ncn2C2CCNCC2)n1

Response:
2.31
1.02
1.43
2.17
7
1.44
0.65

Required: inhibition, one value per molecule below.
1. CCS(=O)(=O)c1ccc(OC)c(Nc2ncc(-c3ccccc3Cl)o2)c1
2. N#Cc1ccc(Oc2nccc(-c3c(-c4ccc(F)cc4)ncn3C3CCNCC3)n2)cc1
3. NS(=O)(=O)c1ccc(N/N=C2\C(=O)Nc3ccc(-c4cnco4)cc32)cc1

Response:
1. 0.68
2. 0.91
3. 1.49

* * *

- SYSTEM_UNDER_TEST: Angiopoietin-1 receptor (Homo sapiens)
- EXPERIMENTAL_PARAMETERS: at 0.1 µM
- Description: GSK_PKIS: TIE2 mean inhibition at 0.1 uM [Nanosyn]
MEASURED_PARAMETER: inhibition (%)
Numbers only, in %.

Provide inhibition for all items below, preserving their order.
1. O=C1Nc2ccc(I)cc2C1=Cc1cc(Br)c(O)c(Br)c1
2. O=C1NC(=O)C(c2cccc(Cl)c2)=C1Nc1ccc(Cl)c(C(=O)O)c1
3. CCS(=O)(=O)c1ccc(OC)c(Nc2ncc(-c3ccccc3Cl)o2)c1
4. CN(C)c1ccc2c(c1)/C(=C/Nc1ccc(S(N)(=O)=O)cc1)C(=O)N2

Response:
1: 4.71; 2: 1.75; 3: 0.48; 4: 1.03

* * *

For each entry below, report its inhibition value.
- SYSTEM_UNDER_TEST: Tyrosine-protein kinase Blk (Homo sapiens);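 also: mean percent inhibition of BLK kinase activity, from GSK PKIS kinase inhibitor set profiling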
- EXPERIMENTAL_PARAMETERS: at 1 µM
Give bare numbers, in %.

{"RECORD_SMILES": "CCc1cccc(CC)c1/C=C/c1cncc(C(=O)NC)c1", "UNIT_NAME": "%", "inhibition": 4.46}
{"RECORD_SMILES": "COc1cc2ncn(-c3cc(OCc4cccs4)c(C(N)=O)s3)c2cc1OC", "UNIT_NAME": "%", "inhibition": 18.6}
{"RECORD_SMILES": "NCc1ccc(-n2c(-c3nonc3N)nc3cnccc32)cc1", "UNIT_NAME": "%", "inhibition": 4.2}
{"RECORD_SMILES": "COc1cccc(-n2cnc3c(N/N=C/c4ccncc4)ncnc32)c1", "UNIT_NAME": "%", "inhibition": 15.8}
{"RECORD_SMILES": "COc1cc(Nc2ncc(-c3ccccc3)o2)cc(OC)c1OC", "UNIT_NAME": "%", "inhibition": 41.1}

# per-item lookup of inhibition; items listed below
1. CN(C)CCOc1ccc(-c2cc(-c3ccc4c(c3)CCC4=NO)c(-c3ccncc3)o2)cc1
2. CCS(=O)(=O)c1ccc(OC)c(Nc2ncc(-c3ccccc3Cl)o2)c1
3. O=C(Nc1ccc(Oc2ccc3[nH]c(NC(=O)c4ccccc4)nc3c2)cc1)Nc1cc(C(F)(F)F)ccc1F
4. c1ccc(-c2n[nH]cc2-c2ccnc(-c3ccc(OCCN4CCOCC4)cc3)c2)nc1
5. O=C(NCC1CC1)c1ccc(-c2cccc(C(=O)NC3CC3)c2)cc1

Response:
6.21
15.7
4.59
1.61
3.43

The reported measurements were obtained from ChEMBL document CHEMBL1961873.
